- Species: Rattus norvegicus
- PROTOCOL_TEXT: Open TG-GATES - Regimen: Single
- Type: toxicity, organism-based, Sprague-Dawley
- Set-up: regimen Single, gender Male, age 6 weeks
- CONDITION_SUMMARY: in vivo, po, 300 mg/kg, 24 h, tissue Blood, route gavage, dose level Middle
MEASUREMENT_NAME: MCHC (%)
Give bare numbers, in %.

Check out these entries, answers already filled in.
Value of MCHC reported for the compound CCc1cc(C(N)=S)ccn1 [ETHIONAMIDE] is 33.7

Value of MCHC reported for the compound Clc1ccccc1CN1CCc2sccc2C1 is 35.6

Value of MCHC reported for the compound O=C(O)c1cc(/N=N/c2ccc(S(=O)(=O)Nc3ccccn3)cc2)ccc1O is 34.2

Value of MCHC reported for the compound O=C(O)c1cn(C2CC2)c2cc(N3CCNCC3)c(F)cc2c1=O is 33.1

Further cases:
Value of MCHC reported for the compound C[C@H](CS)C(=O)N1CCC[C@H]1C(=O)O is 33.2

###

- Species: Rattus norvegicus
- PROTOCOL_TEXT: Open TG-GATES - Regimen: Single
- Assay type: toxicity, organism-based, Sprague-Dawley
- Design: regimen Single, gender Male, age 6 weeks
- CONDITION_SUMMARY: in vivo, po, 0 mg/kg, 3 h, tissue Plasma, route gavage, dose level Control
Could you label it Fulfilled if measured AST is 70 IU/L or higher, and Not fulfilled otherwise?

Use the examples below as a reference point.
## Task Threshold query (AST >= 70 IU/L) on NC(=O)N/N=C/c1ccc([N+](=O)[O-])o1
## Result Fulfilled

## Task Threshold query (AST >= 70 IU/L) on COc1ccc(Cc2nccc3cc(OC)c(OC)cc23)cc1OC
## Result Fulfilled

## Task Threshold query (AST >= 70 IU/L) on CC(=O)Oc1ccccc1C(=O)O
## Result Fulfilled

Further cases:
## Task Threshold query (AST >= 70 IU/L) on NC(=O)N1c2ccccc2C=Cc2ccccc21 [CARBAMAZEPINE]
## Result Not fulfilled

## Task Threshold query (AST >= 70 IU/L) on CCc1cc(C(N)=S)ccn1 [ETHIONAMIDE]
## Result Not fulfilled

## Task Threshold query (AST >= 70 IU/L) on C[C@H](CS)C(=O)N1CCC[C@H]1C(=O)O
## Result Not fulfilled

## Task Threshold query (AST >= 70 IU/L) on O=C(O)c1cc(/N=N/c2ccc(S(=O)(=O)Nc3ccccn3)cc2)ccc1O
## Result Not fulfilled

## Task Threshold query (AST >= 70 IU/L) on CN(C)CCC=C1c2ccccc2CCc2ccccc21
## Result Fulfilled

###

- Species: Rattus norvegicus
- PROTOCOL_TEXT: Open TG-GATES - Regimen: Daily Repeat
- Type: toxicity, organism-based, Sprague-Dawley
- Parameters: regimen Daily Repeat, gender Male, age 6 weeks
- CONDITION_SUMMARY: in vivo, po, 0 mg/kg, […], tissue Blood, route gavage, dose level Control, time 7 day
MEASUREMENT_NAME: Plat

Check out these entries, answers already filled in.
Value of Plat reported for the molecule CCc1cc(C(N)=S)ccn1 [ETHIONAMIDE] is 119.6 x10_4/uL

Value of Plat reported for the molecule NC(=O)N/N=C/c1ccc([N+](=O)[O-])o1 [NITROFURAZONE] is 112.6 x10_4/uL

Value of Plat reported for the molecule Clc1ccccc1CN1CCc2sccc2C1 [TICLOPIDINE] is 127 x10_4/uL

Value of Plat reported for the molecule O=C(O)c1cc(/N=N/c2ccc(S(=O)(=O)Nc3ccccn3)cc2)ccc1O [SULFASALAZINE] is 129.3 x10_4/uL

Value of Plat reported for the molecule O=C(O)c1cn(C2CC2)c2cc(N3CCNCC3)c(F)cc2c1=O [CIPROFLOXACIN] is 101.9 x10_4/uL

Value of Plat reported for the molecule CC(=O)Oc1ccccc1C(=O)O [ASPIRIN] is 128.4 x10_4/uL

Value of Plat reported for the molecule COc1ccc(Cc2nccc3cc(OC)c(OC)cc23)cc1OC [PAPAVERINE] is 111.7 x10_4/uL

Value of Plat reported for the molecule NC(=O)N1c2ccccc2C=Cc2ccccc21 [CARBAMAZEPINE] is 122.6 x10_4/uL

Hey, quick one: what's Plat for each of these?
1. COc1ccc2c(c1)c(CC(=O)O)c(C)n2C(=O)c1ccc(Cl)cc1 [INDOMETHACIN]
2. CN(C)CCC=C1c2ccccc2CCc2ccccc21 [AMITRIPTYLINE]
3. CSc1ccc2c(c1)N(CCC1CCCCN1C)c1ccccc1S2 (stereo not given) [THIORIDAZINE]
4. Cn1c(=O)c2[nH]cnc2n(C)c1=O.O [THEOPHYLLINE]
5. CCCC(CCC)C(=O)O [VALPROIC ACID]

## Result
["106.3 x10_4/uL", "109.9 x10_4/uL", "100.8 x10_4/uL", "112 x10_4/uL", "132.8 x10_4/uL"]

Hey, quick one: what's Plat for each of these?
1. CO[C@H]1/C=C/O[C@@]2(C)Oc3c(C)c(O)c4c(O)c(c(/C=N/N5CCN(C)CC5)c(O)c4c3C2=O)NC(=O)/C(C)=C\C=C\[C@H](C)[C@H](O)[C@@H](C)[C@@H](O)[C@@H](C)[C@H](OC(C)=O)[C@@H]1C [RIFAMPIN]
2. C[C@H](CS)C(=O)N1CCC[C@H]1C(=O)O [CAPTOPRIL]

## Result
["107.2 x10_4/uL", "113.7 x10_4/uL"]

###

Please respond with reported Na for every item in the list.
- Organism: Rattus norvegicus
- PROTOCOL_TEXT: Open TG-GATES - Regimen: Single
- Assay type: toxicity, organism-based, Sprague-Dawley
- Set-up: regimen Single, gender Male, age 6 weeks
- CONDITION_SUMMARY: in vivo, po, 300 mg/kg, 6 h, tissue Plasma, route gavage, dose level Middle
One number for each entry, in meq/L.

Check out these entries, answers already filled in.
Value of Na reported for the compound O=C(O)c1cn(C2CC2)c2cc(N3CCNCC3)c(F)cc2c1=O is 138

Value of Na reported for the compound O=C(O)c1cc(/N=N/c2ccc(S(=O)(=O)Nc3ccccn3)cc2)ccc1O is 140.8

Value of Na reported for the compound CCc1cc(C(N)=S)ccn1 [ETHIONAMIDE] is 140

Hey, quick one: what's Na for each of these?
1. C[C@H](CS)C(=O)N1CCC[C@H]1C(=O)O
2. Clc1ccccc1CN1CCc2sccc2C1

## Result
139
141

###

- Species on record: Rattus norvegicus
- PROTOCOL_TEXT: Open TG-GATES - Regimen: Single
- Type: toxicity, organism-based, Sprague-Dawley
- Parameters: regimen Single, gender Male, age 6 weeks
- CONDITION_SUMMARY: in vivo, po, 100 mg/kg, 3 h, tissue Plasma, route gavage, dose level Low
Please respond with reported Na for every item in the list.
Answers are plain numbers, in meq/L.

Check out these entries, answers already filled in.
Value of Na reported for the compound O=C(O)c1cn(C2CC2)c2cc(N3CCNCC3)c(F)cc2c1=O is 139

Value of Na reported for the compound O=C(O)c1cc(/N=N/c2ccc(S(=O)(=O)Nc3ccccn3)cc2)ccc1O is 140.8

Value of Na reported for the compound C[C@H](CS)C(=O)N1CCC[C@H]1C(=O)O is 137.8

Hey, quick one: what's Na for each of these?
1. Clc1ccccc1CN1CCc2sccc2C1
2. CCc1cc(C(N)=S)ccn1 [ETHIONAMIDE]

## Result
1: 141.4; 2: 140.6

###

- Species on record: Rattus norvegicus
- PROTOCOL_TEXT: Open TG-GATES - Regimen: Single
- Format: toxicity, organism-based, Sprague-Dawley
- Set-up: regimen Single, gender Male, age 6 weeks
- CONDITION_SUMMARY: in vivo, po, 0 mg/kg, 3 h, tissue Blood, route gavage, dose level Control
MEASUREMENT_NAME: APTT (s)
Give bare numbers, in s.

Check out these entries, answers already filled in.
Value of APTT reported for the molecule CCc1cc(C(N)=S)ccn1 [ETHIONAMIDE] is 16.6

Value of APTT reported for the molecule CN(C)CCC=C1c2ccccc2CCc2ccccc21 is 16.6

Value of APTT reported for the molecule CC(=O)Oc1ccccc1C(=O)O is 17.5

Hey, quick one: what's APTT for each of these?
1. C[C@H](CS)C(=O)N1CCC[C@H]1C(=O)O
2. NC(=O)N/N=C/c1ccc([N+](=O)[O-])o1
3. NC(=O)N1c2ccccc2C=Cc2ccccc21 [CARBAMAZEPINE]
4. O=C(O)c1cc(/N=N/c2ccc(S(=O)(=O)Nc3ccccn3)cc2)ccc1O
5. Clc1ccccc1CN1CCc2sccc2C1
6. Cn1c(=O)c2[nH]cnc2n(C)c1=O.O
7. COc1ccc(Cc2nccc3cc(OC)c(OC)cc23)cc1OC

## Result
1. 16.4
2. 15.7
3. 20
4. 18.5
5. 18.6
6. 22.2
7. 21.8

Value of APTT reported for the molecule CSc1ccc2c(c1)N(CCC1CCCCN1C)c1ccccc1S2 (stereo unspecified) is 16
